Data credit: patent US20240277730A1

# SYSTEM_UNDER_TEST: ACE2: SARS-COV-2 Spike RBD (Homo sapiens)
# Sequence (Q9BYF1 18-740): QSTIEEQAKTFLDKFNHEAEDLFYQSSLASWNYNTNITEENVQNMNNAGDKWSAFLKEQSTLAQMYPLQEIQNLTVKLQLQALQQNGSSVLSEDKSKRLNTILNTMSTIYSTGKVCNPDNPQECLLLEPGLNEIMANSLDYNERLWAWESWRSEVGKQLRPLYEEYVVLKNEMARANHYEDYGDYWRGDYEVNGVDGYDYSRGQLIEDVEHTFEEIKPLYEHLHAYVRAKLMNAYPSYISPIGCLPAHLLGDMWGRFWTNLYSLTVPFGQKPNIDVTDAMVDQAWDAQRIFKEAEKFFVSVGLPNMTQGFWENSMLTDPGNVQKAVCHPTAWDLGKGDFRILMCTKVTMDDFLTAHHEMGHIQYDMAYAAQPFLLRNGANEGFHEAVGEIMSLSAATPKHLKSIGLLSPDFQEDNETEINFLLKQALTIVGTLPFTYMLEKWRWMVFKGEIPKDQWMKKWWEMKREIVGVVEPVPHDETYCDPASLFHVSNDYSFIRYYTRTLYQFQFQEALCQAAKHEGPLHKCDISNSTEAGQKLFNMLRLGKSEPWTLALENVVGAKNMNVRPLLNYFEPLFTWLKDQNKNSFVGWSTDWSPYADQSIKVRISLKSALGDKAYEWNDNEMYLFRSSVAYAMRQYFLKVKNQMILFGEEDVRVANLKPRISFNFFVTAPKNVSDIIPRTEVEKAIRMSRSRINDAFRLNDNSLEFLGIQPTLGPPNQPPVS
pIC50: −log10 of the molar value.
List of pIC50 values.
MEASURED_PROPERTY: pIC50

compound="OC(CNCCNc1ncccc1C(F)(F)F)Cn1ccc2ccccc21 (stereo not drawn) [formula (VI)]" system_under_test="ACE2: SARS-COV-2 Spike RBD (Homo sapiens)" measured_property=pIC50 meas_value="< 5.30"
compound="CN(C)/C=C1\\N=C(c2cccnc2Oc2ccc(Cl)cc2)OC1=O [formula (VII)]" system_under_test="ACE2: SARS-COV-2 Spike RBD (Homo sapiens)" measured_property=pIC50 meas_value="< 5.30"
compound="CCn1c(SCC(=O)N2CCCc3ccccc32)nnc1-c1cccs1 [formula (V)]" system_under_test="ACE2: SARS-COV-2 Spike RBD (Homo sapiens)" measured_property=pIC50 meas_value=5.72

###

# TEST: MTT cell viability assay, UNCN1T
# Format: cell-based
# ASSAY_SETUP: human, UNCN1T cells
Consider the following compounds and their measured CC50 at 72 h readings.
MEASURED_PROPERTY: CC50 at 72 h

compound="CN1C(=O)c2ccccc2[S+]([O-])c2cc([N+](=O)[O-])ccc2S1(=O)=O (centres unmarked) [formula (Ia)]" measured_property="CC50 at 72 h" meas_value="> 100 µM"
compound="O=C1Nc2cc(C(F)(F)F)ccc2Oc2ccsc21 [formula (IIa)]" measured_property="CC50 at 72 h" meas_value="> 100 µM"

###

# TEST: MTT cell viability assay, HEK293T-hACE2
# Format: cell-based
# ASSAY_SETUP: human, HEK293T-hACE2 cells
MEASURED_PROPERTY: CC50 at 72 h

compound="O=C1Nc2cc(C(F)(F)F)ccc2Oc2ccsc21 [formula (IIa)]" measured_property="CC50 at 72 h" meas_value="> 100 µM"
compound="CCn1c(SCC(=O)N2CCCc3ccccc32)nnc1-c1cccs1 [formula (V)]" measured_property="CC50 at 72 h" meas_value="> 100 µM"
compound="CN(C)/C=C1\\N=C(c2cccnc2Oc2ccc(Cl)cc2)OC1=O [formula (VII)]" measured_property="CC50 at 72 h" meas_value="> 100 µM"
compound="CN1C(=O)c2ccccc2[S+]([O-])c2cc([N+](=O)[O-])ccc2S1(=O)=O (centres unmarked) [formula (Ia)]" measured_property="CC50 at 72 h" meas_value="> 100 µM"
compound="OC(CNCCNc1ncccc1C(F)(F)F)Cn1ccc2ccccc21 (centres unmarked) [formula (VI)]" measured_property="CC50 at 72 h" meas_value="> 100 µM"
